- procedure_text: RP, Waters ACQUITY UPLC BEH C18, 100 × 1 mm, 1.7 µm, -1 °C, 0.15 mL/min, estimated dead time 0.33 min; A: water + 0.1% formic acid; B: acetonitrile + 0.1% formic acid; gradient (min/%B) 0/5 8/25 14/70 20/95 23/95
- assay_context: stereoisomer not certain
Parameter LC retention time: see the listing below.

compound	result_units	LC retention time
CC(C)CC(=O)OC(CC(=O)[O-])C[N+](C)(C)C (stereo not given)	min	0.7
CC(N)C(=O)O (stereo not given)	min	0.7
CC(C(=O)O)C(O)(CC(=O)O)C(=O)O (stereo not given)	min	4.3
C[N+](C)(C)CCOP(=O)(O)O	min	0.7
NC(COP(=O)(O)O)C(=O)O (stereo not given)	min	0.6
